system: H1299 lung cancer cells; experiment: MTT cell viability assay, H1299; format: cell-based, human; settings: H1299, 96 h
assay_readout: pIC50
Scale explanation: pIC50 corresponds to minus log10 of a concentration expressed in moles per litre.

I'd like to know its pIC50. The compound in question is O=C(/C=C/c1ccc(Cl)cc1)Nc1ccc(Cl)cc1C(=O)c1ccccc1 [Compound C3]
3.47

Need pIC50, item Cc1ccc(C(=O)c2ccccc2NC(=O)/C=C/c2ccc(Cl)cc2)cc1 [Compound C6]
3.59

Given the entry O=C(/C=C/c1ccc(Cl)cc1)Nc1cccc(C(=O)c2ccccc2)c1 [Compound C2] , report its measured pIC50.
3.46

Quick check: pIC50 of O=C(/C=C/c1ccc(Cl)cc1)Nc1ccccc1C(=O)c1ccccc1 [Compound C5] ?
3.38

Requested field: pIC50. Item: Cc1ccc(NC(=O)/C=C/c2ccc(Cl)cc2)c(C(=O)c2ccccc2)c1 [Compound C4]
3.60

----------
Measured IC50 by item
test system: H661 lung cancer cells; assay: MTT cell viability assay, H661; format: cell-based, human; settings: H661, 96 h
API: value field is a number in µM; no unit string.

For orientation, consider the following solved cases.
>  <compound_structure>
O=C(/C=C/c1ccc(Cl)cc1)Nc1cccc(C(=O)c2ccccc2)c1

>  <observed_result>
350

$$$$
>  <compound_structure>
O=C(/C=C/c1ccc(Cl)cc1)Nc1ccccc1C(=O)c1ccccc1

>  <observed_result>
226

$$$$

Kindly review the next compound as well.
Notebook entry, H661 lung cancer cells assay: IC50 of `O=C(/C=C/c1ccc(Cl)cc1)Nc1ccc(Cl)cc1C(=O)c1ccccc1` = ?
203

----------
test system: A549 lung cancer cells; experiment: MTT cell viability assay, A549; type: cell-based, human; conditions: A549, 48 h
assay_readout: IC50

>  <compound_structure>
O=C(/C=C/c1ccc(Cl)cc1)Nc1ccccc1C(=O)c1ccccc1

>  <IC50>
> 1000 µM

$$$$
>  <compound_structure>
Cc1ccc(C(=O)c2ccccc2NC(=O)/C=C/c2ccc(Cl)cc2)cc1

>  <IC50>
> 1000 µM

$$$$

Quick one: IC50 of `O=C(/C=C/c1ccc(Cl)cc1)Nc1cccc(C(=O)c2ccccc2)c1` ?
> 1000 µM
